These entries and their values trace back to patent US20190309059A1.

Each record here notes measured mean fluorescence intensity.
Biological target: his-labeled human IL-13 (immunogen A) (human) (UniProt P35225)
Assay: FACS blocking, biotin-IL-13 on IL-13Ra2 HEK293 cells; antibody at 1.33 nM

binder	mean fluorescence intensity
35E2C3 (lead antibody, mouse hybridoma) (antibody, V domains shown, Mouse monoclonal antibody purified from hybridoma supernatant on Protein G) VH: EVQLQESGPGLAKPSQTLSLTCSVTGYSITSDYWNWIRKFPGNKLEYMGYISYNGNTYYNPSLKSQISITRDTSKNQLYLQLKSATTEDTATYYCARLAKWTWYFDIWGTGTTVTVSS VL: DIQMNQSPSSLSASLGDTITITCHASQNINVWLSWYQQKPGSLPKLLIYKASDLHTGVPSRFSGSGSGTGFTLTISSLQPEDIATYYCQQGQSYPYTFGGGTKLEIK	38.7
c29D9H8 (mouse-human chimeric IL-13 antibody) (antibody, V domains shown) VH: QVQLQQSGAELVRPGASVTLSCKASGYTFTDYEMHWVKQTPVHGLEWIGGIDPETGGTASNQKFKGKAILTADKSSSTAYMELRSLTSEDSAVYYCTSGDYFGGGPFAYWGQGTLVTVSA VL: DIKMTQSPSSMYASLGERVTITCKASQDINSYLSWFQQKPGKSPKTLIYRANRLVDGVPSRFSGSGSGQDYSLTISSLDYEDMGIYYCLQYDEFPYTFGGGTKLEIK	34.6
c28A2E11 (mouse-human chimeric IL-13 antibody) (antibody, V domains shown) VH: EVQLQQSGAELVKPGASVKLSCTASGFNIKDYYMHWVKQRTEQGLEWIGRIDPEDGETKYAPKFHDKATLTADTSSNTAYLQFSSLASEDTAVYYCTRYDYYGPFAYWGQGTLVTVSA VL: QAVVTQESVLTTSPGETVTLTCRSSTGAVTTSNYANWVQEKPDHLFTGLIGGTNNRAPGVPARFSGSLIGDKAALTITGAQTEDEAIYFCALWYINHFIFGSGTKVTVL	77.7
